These entries and their values trace back to ChEMBL document CHEMBL5576134.

Test system: MIA PaCa-2
experiment_summary: Preferential cytotoxicity against human MIA PaCa-2 cells in nutrient-deprived medium measured after 24 hrs by WST-8 cell counting analysis
Format: functional
Lab note: cut-off is 0.8 µM. Strictly less in PC50 is Met. Exactly 0.8 µM or more is Not met.

Quick check: PC50 of COc1cc(O)c(C(=O)[C@H]2CC=C(CCC=C(C)C)C[C@@H]2c2ccc(F)c(F)c2)c(O)c1 (relative stereo) under 0.8 µM?
Met

# strict comparison: is reported PC50 < 0.8 µM? input = CC(C)=CCCC1=CC[C@H](C(=O)c2c(O)cccc2O)[C@@H](c2cc(F)ccc2F)C1 (relative stereo)
Met

Is the reported PC50 for CC(C)=CCCC1=CC[C@H](C(=O)c2c(O)cccc2O)[C@@H](c2cc(F)cc(F)c2)C1 (relative stereo) strictly below 0.8 µM?
Met

Answer whether the compound COc1ccc([C@H]2CC(CCC=C(C)C)=CC[C@@H]2C(=O)c2c(O)cccc2O)cc1 (relative stereo) has PC50 strictly less than 0.8 µM
Not met

# strict comparison: is reported PC50 < 0.8 µM? input = "COc1cccc(O)c1C(=O)[C@H]1CC=C(CCC=C(C)C)C[C@@H]1c1ccccc1"
Not met

Find out if reported PC50 for CC(C)=CCCC1=CC[C@H](C(=O)c2c(O)cccc2O)[C@@H](c2ccc(F)c(F)c2)C1 (relative stereo) is less than 0.8 µM
Met
